In what follows, each item is paired with its pIC50 for human Glx-I enzyme (Homo sapiens).
Give bare numbers, as −log10 of the molar value.

Nc1ccc(/N=N/c2ccc(S(N)(=O)=O)cc2)c2cc(O)ccc12; 4.41

API: the following record is the query input.
Please report the recorded pIC50 for `NS(=O)(=O)c1ccc(/N=N/c2ccc(O)c(C(=O)O)c2)cc1` . 6.41
